Readings of pIC50 for the listed compounds
System: MOLT 4 Leukemia
test.details: MTT cytotoxicity assay, MOLT 4
Format: cell-based
condition.description: Homo sapiens, 24 h, read-out: ED50 values of cytotoxicity
pIC50: −log10 of the molar value.

compound	pIC50
CCOC(=O)C1CCC(=O)N1C(OC(C)=O)C(C)=O (centres unmarked) [MGC-8]	2.54
CC(=O)OC(C(C)=O)N1C(=O)CCC1C(=O)OCc1ccccc1 (centres unmarked) [MGC-6]	2.89

###

Tested on: Miapaca2 Pancreas
test.details: MTT cytotoxicity assay, Miapaca2
Format: cell-based
condition.description: Homo sapiens, MIA PaCa-2, 24 h, read-out: ED50 values of cytotoxicity
pIC50: −log10 of the molar value.
measurement.type: pIC50

compound	val
CC(=O)OC(C(C)=O)N1C(=O)CCC1C(=O)OCc1ccccc1 (stereo not shown)	2.41

###

Readings of pIC50 for the listed molecules
Test system: MCF7 breast
test.details: MTT cytotoxicity assay, MCF7
Assay type: cell-based
condition.description: Homo sapiens, 24 h; MCF7 Breast; read-out: ED50 values of cytotoxicity
pIC50: −log10 of the molar value.

molecule	qual	pIC50
CC(=O)OC(C(C)=O)N1C(=O)CCC1C(=O)OCc1ccccc1 (centres unmarked)	<	2.30
CCOC(=O)C1CCC(=O)N1C(OC(C)=O)C(C)=O (centres unmarked)	=	2.62

###

Readings of safe dose for the listed compounds
Tested on: Swiss albino mice
Type: in vivo
condition.description: oral; Swiss albino mice weighing 25 grams
measurement.type: safe dose (mg)

compound	measurement.type	val
CC(=O)OC(C(C)=O)N1C(=O)CCC1C(=O)OCc1ccccc1 (centres unmarked) [MGC-6]	safe dose	75
CCOC(=O)C1CCC(=O)N1C(OC(C)=O)C(C)=O (centres unmarked) [MGC-8]	safe dose	100
CCCCOC(=O)C1CCC(=O)N1C(O)C(C)=O (centres unmarked) [MGC-2]	safe dose	75
COC(=O)C1CCC(=O)N1C(OC(C)=O)C(C)=O (centres unmarked) [MGC-4]	safe dose	100
CCOC(=O)C1CCC(=O)N1C(O)C(C)=O (centres unmarked) [MGC-7]	safe dose	100

###

Tested on: PTC Colon
test.details: MTT cytotoxicity assay, PTC
Assay type: cell-based
condition.description: Homo sapiens, 24 h, read-out: ED50 values of cytotoxicity
measurement.type: IC50 (mM)

compound	measurement.units	val
CCOC(=O)C1CCC(=O)N1C(OC(C)=O)C(C)=O (centres unmarked)	mM	2.75
CC(=O)OC(C(C)=O)N1C(=O)CCC1C(=O)OCc1ccccc1 (centres unmarked)	mM	1.6
